# System: HepG2 B6 cells (STAT-sPAP reporter)
# experiment: OSM-GST mutant driven sPAP production in HepG2 B6 assay
# Type: cell-based, human
Known Expt 2 EC50 of a selection of molecules
Hi! Could you send only the number? It should be in µg/mL, unit omitted.

These solved cases illustrate the format of a correct answer.
**Query** I am curious: what Expt 2 EC50 value has been reported for (6) L13A: OSM-GST fusion, alanine for Leu 13 (protein) AAIGSCSKEYRVALGQLQKQTDLMQDTSRLLDPYIRIQGLDVPKLREHCRERPGAFPSEETLRGLGRRGFLQTLNATLGCVLHRLADLEQRLPKAQDLERSGLNIEDLEKLQMARPNILGLRNNIYCMAQLLDNSDTAEPTKAGRGASQPPTPTPASDAFQRKLEGCRFLHGYHRFMHSVGRVFSKWGESPNRSRR ?
**Result** 0.0549

**Query** Value lookup for Expt 2 EC50; key = (2) K8A: OSM-GST fusion, alanine for Lys 8 (protein, left off: a dimerising Fc or GST; large carriers; small tags and cut ends) AAIGSCSAEYRVLLGQLQKQTDLMQDTSRLLDPYIRIQGLDVPKLREHCRERPGAFPSEETLRGLGRRGFLQTLNATLGCVLHRLADLEQRLPKAQDLERSGLNIEDLEKLQMARPNILGLRNNIYCMAQLLDNSDTAEPTKAGRGASQPPTPTPASDAFQRKLEGCRFLHGYHRFMHSVGRVFSKWGESPNRSRR
**Result** 0.0125

**Query** Query: Expt 2 EC50; subject: (3) E9A: OSM-GST fusion, alanine for Glu 9 (protein, left off: a dimerising Fc or GST; large carriers; small tags and cut ends) AAIGSCSKAYRVLLGQLQKQTDLMQDTSRLLDPYIRIQGLDVPKLREHCRERPGAFPSEETLRGLGRRGFLQTLNATLGCVLHRLADLEQRLPKAQDLERSGLNIEDLEKLQMARPNILGLRNNIYCMAQLLDNSDTAEPTKAGRGASQPPTPTPASDAFQRKLEGCRFLHGYHRFMHSVGRVFSKWGESPNRSRR
**Result** 0.0089

Could you now look at the following molecule, please?
**Query** Dear colleague, I am looking for the recorded Expt 2 EC50 of the following molecule: (18) N117A: OSM-GST fusion, alanine for Asn 117 (protein, left off: a dimerising Fc or GST; large carriers; small tags and cut ends) AAIGSCSKEYRVLLGQLQKQTDLMQDTSRLLDPYIRIQGLDVPKLREHCRERPGAFPSEETLRGLGRRGFLQTLNATLGCVLHRLADLEQRLPKAQDLERSGLNIEDLEKLQMARPAILGLRNNIYCMAQLLDNSDTAEPTKAGRGASQPPTPTPASDAFQRKLEGCRFLHGYHRFMHSVGRVFSKWGESPNRSRR
**Result** 0.0425
